- Test system: Colon cancer organoid
- protocol notes: Identification of compartment-specific drug sensitivities in O20 CRC organoid-stroma F20 CAF co-cultures. Organoid is transduced with Lucferase2-P2A-EGFP lentivirus, fibroblast with Renilla-dsRed lentivirus. Dual-Glo Luciferase assay is used to report viability data.
- Type: functional, Homo sapiens
- Parameters: dose or concentration left out as unconfirmed
- measurement parameters: Transduced with Renilla-dsRed lentivirus
value type: Cell Viability

molecule=OCCn1cc(-c2ccc3c(c2)CCC3=NO)c(-c2ccncc2)n1 reported_value=70.8995%
molecule=CN[C@@H]1C[C@H]2O[C@@](C)([C@@H]1OC)n1c3ccccc3c3c4c(c5c6ccccc6n2c5c31)C(=O)NC4 reported_value=0.5055%
molecule=CCN(CC)S(=O)(=O)Nc1cccc(-c2ccc3c(NC(=O)C4CC4)n[nH]c3c2)c1 reported_value=136.148%
molecule=O=C(Nc1cccnc1)c1cc(-c2ccnc(F)c2)ccc1OCc1ccccc1 reported_value=104.766%
molecule=Cc1ccc(-c2cnc([C@@]3(O)CC[C@H](C(=O)O)C(C)(C)C3)s2)cc1Nc1cccc(C(F)(F)F)n1 reported_value=131.597%
molecule=CCOc1cc(N2CCC(O)CC2)ccc1Nc1ncc2c(n1)N(C)c1ccccc1C(=O)N2C reported_value=117.331%
molecule=Cc1noc(C)c1-c1cnc2c(-c3ccc(C(=O)O)cc3)cn([C@@H](C)c3ccccn3)c2c1 reported_value=177.825%
molecule="CC1=C(C(=O)Nc2cc3cn[nH]c3cc2F)C(c2ccc(C(F)(F)F)cc2)CC(=O)N1 (configuration not stated)" reported_value=94.2958%
molecule=CCc1cc2cc(NS(=O)(=O)c3ccc(C#N)cc3)ccc2n(CC)c1=O reported_value=99.0217%
molecule=COc1c(OCCCN2CCOCC2)ccc2c1N=C(NC(=O)c1cnc(N)nc1)N1CCN=C21 reported_value=117.524%
molecule=c1ccc(C2CCN(c3cnc4c(N5CCOCC5)nccn34)CC2)cc1 reported_value=108.246%
molecule="CN(C)[C@H]1CCN(c2cc(-c3ccccc3)nc3ccnn23)C1 [(S)-ZINC-3573]" reported_value=112.128%
molecule=CN(C(=O)c1ccccc1)c1cc(N(C)c2ccc3c(c2)CCc2ccc(C(=O)NCCN4CCOCC4)cc2C3=O)ccc1F reported_value=153.202%
molecule=CNc1nc(-c2ccc3c(N)n[nH]c3c2)cc(N2C[C@@H](C(=O)NC3CCCCC3)CC[C@H]2C)n1 reported_value=121.574%
molecule=COc1ccc(CCc2nc3cc(-c4c(C)noc4C)ccc3n2C[C@H](C)N2CCOCC2)cc1Cl reported_value=133.846%
molecule=Cc1ccc2nc(CNCCCOc3ccccc3)cc(O)c2c1 reported_value=125.381%
molecule=CC1=C(C)C(=O)C(C(C)(C)CC(=O)N(CCCCSC[C@H]2O[C@@H](n3cnc4c(N)ncnc43)[C@@H]3OC(C)(C)O[C@@H]32)Cc2cccc(-c3ccc(Cl)cc3)c2)=C(C)C1=O reported_value=117.278%
